# method-description: Caco-2 bidirectional assay (A-B and B-A) to study the effect of piperine (P-gp inhibitor) on the permeability
# Assay type: in vitro ADME
# experimental-context: human, Caco-2, pH 7.4
# Description: Caco-2 cells were cultured in MEM media with 10% serum and seeded at a density of 75000 cells per mL and cultured for 21 days in a 24-well trans-well plate at 37° C., 5% CO2. […] For B-A, 800 μL of the respective dilutions were added to the basal side in duplicates with 400 μL HBSS pH 7.4 in the apical wells. […] The sample were analyzed on LCMS-MS. […] The apparent permeability (Papp) in units per second can be calculated by using the following equation, […]

structure-notation | Papp B→A at 120 min, 30 μM
CO[C@H]1/C=C/O[C@@]2(C)Oc3c(C)c(O)c4c(O)c(c5c(nc6cc(C)ccn65)c4c3C2=O)NC(=O)/C(C)=C\C=C\[C@H](C)[C@H](O)[C@@H](C)[C@@H](O)[C@@H](C)[C@H](OC(C)=O)[C@@H]1C | 6.17 ×10⁻⁶ cm/s
